# Measured On: T1, His-tagged ectodomain of mouse transferrin receptor 1 (mTfR1, S122-F763) (mouse, UniProt Q62351 122-763)
# T1 construct: also called mouse TfR1
# Protocol Text: ELISA on coated TfR1 ectodomain; 125I-labelled or original sample, anti-VHH detection
Parameter Measured: binding result

[
  {
    "Binder": "BV-scFv (benchmark VHH BV at the N-terminus of 3D6 scFv) (bispecific antibody) EVQLVESGGGVVQPGGSLKLSCVASGTDFSINFIRWYRQAPGKQREFVAGFTATGNTNYADSMKGRFTISRDNTKNAVYLQIDSLKPEDTAVYYCYMLDKWGQGTQVTVSSGGGGSGGGGSGGGGSEVKLVESGGGLVKPGASLKLSCAASGFTFSNYGMSWVRQNSDKRLEWVASIRSGGGRTYYSDNVKGRFTISRENAKNTLYLQMSSLKSEDTALYYCVRYDHYSGSSDYWGQGTTVTVSGGGGSGGGGSGGGGSYVVMTQTPLTLSVTIGQPASISCKSSQSLLDSDGKTYLNWLLQRPGQSPKRLIYLVSKLDSGVPDRFTGSGSGTDFTLKISRIEAEDLGLYYCWQGTHFPRTFGGGTKLEIKGSENLYFQSHHHHHH",
    "Parameter Measured": "binding result",
    "Result": "binds"
  },
  {
    "Binder": "KB_B01-scFv (KB_B01 at the N-terminus of 3D6 scFv) (bispecific antibody, also called VHH-scFv) QVQLQESGGGLVQAGGSLRLSCAASGTPFSNNYMRWYRQAPGKQREWVAGFTSGGSTNYADSVKGRFTISRDNAEGTVYLQMDNLKPEDTAVYYCYFLDVWGQGTQVTVSSGGGGSGGGGSGGGGSEVKLVESGGGLVKPGASLKLSCAASGFTFSNYGMSWVRQNSDKRLEWVASIRSGGGRTYYSDNVKGRFTISRENAKNTLYLQMSSLKSEDTALYYCVRYDHYSGSSDYWGQGTTVTVSGGGGSGGGGSGGGGSYVVMTQTPLTLSVTIGQPASISCKSSQSLLDSDGKTYLNWLLQRPGQSPKRLIYLVSKLDSGVPDRFTGSGSGTDFTLKISRIEAEDLGLYYCWQGTHFPRTFGGGTKLEIKGSENLYFQSHHHHHH",
    "Parameter Measured": "binding result",
    "Result": "binds"
  },
  {
    "Binder": "scFv-BV (3D6 scFv at the N-terminus of benchmark VHH BV) (bispecific antibody, also called scFc-BV) EVKLVESGGGLVKPGASLKLSCAASGFTFSNYGMSWVRQNSDKRLEWVASIRSGGGRTYYSDNVKGRFTISRENAKNTLYLQMSSLKSEDTALYYCVRYDHYSGSSDYWGQGTTVTVSGGGGSGGGGSGGGGSYVVMTQTPLTLSVTIGQPASISCKSSQSLLDSDGKTYLNWLLQRPGQSPKRLIYLVSKLDSGVPDRFTGSGSGTDFTLKISRIEAEDLGLYYCWQGTHFPRTFGGGTKLEIKGGGGSGGGGSGGGGSEVQLVESGGGVVQPGGSLKLSCVASGTDFSINFIRWYRQAPGKQREFVAGFTATGNTNYADSMKGRFTISRDNTKNAVYLQIDSLKPEDTAVYYCYMLDKWGQGTQVTVSSGSENLYFQSHHHHHH",
    "Parameter Measured": "binding result",
    "Result": "binds"
  }
]

FYI, the data here is from patent US20260116990A1.
